# Test system: RAD52-ssDNA interaction (Homo sapiens, UniProt P43351)
# Construct: made in house
# Sequence (P43351 whole entry): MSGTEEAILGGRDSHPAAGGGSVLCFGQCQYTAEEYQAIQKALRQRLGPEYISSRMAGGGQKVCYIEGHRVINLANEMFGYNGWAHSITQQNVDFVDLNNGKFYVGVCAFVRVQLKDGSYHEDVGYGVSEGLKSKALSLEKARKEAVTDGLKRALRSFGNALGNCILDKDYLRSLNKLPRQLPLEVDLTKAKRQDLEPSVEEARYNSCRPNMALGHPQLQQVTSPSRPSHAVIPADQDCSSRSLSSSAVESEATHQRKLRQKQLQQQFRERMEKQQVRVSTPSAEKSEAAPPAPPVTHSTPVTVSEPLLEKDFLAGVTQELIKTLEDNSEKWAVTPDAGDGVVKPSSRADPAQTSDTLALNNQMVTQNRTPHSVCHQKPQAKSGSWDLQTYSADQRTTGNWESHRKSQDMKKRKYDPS
# Procedure text: FRET-based ssDNA binding and wrapping assay (RAD52-Cy3-dT30-Cy5 complex)
# Stated conditions: summary of Table 1
Where a name gives a salt, the structure may show the parent alone.
Reported property: IC50 range for ssDNA binding and wrapping, in words

| Compound | Test value |
| --- | --- |
| O=c1c(O)c(-c2ccc(O)c(O)c2)oc2c(O)c(O)cc(O)c12 [Compound 19, Gossypetin] | nano-molar range |
| Oc1cc(O)c2c(c1)O[C@H](c1ccc(O)c(O)c1)[C@H](O)C2 [Compound 7, (−)-Epicatechin] | micro-molar range |
| O=C(O[C@@H]1Cc2c(O)cc(O)cc2O[C@@H]1c1ccc(O)c(O)c1)c1cc(O)c(O)c(O)c1 [Compound 5, (−)-Epicatechin gallate] | nano-molar range |
| C=C1c2cccc(O)c2C(=O)C2=C(O)[C@]3(O)C(=O)C(C(N)=O)=C(O)[C@@H](N(C)C)[C@@H]3[C@@H](O)[C@H]12 [Compound 3, Methacycline Hydrochloride, reference compound] | micro-molar range |
| NCCc1cc(O)c(O)cc1O [Compound 14, Oxidopamine] | nano-molar range |
| O=C1c2ccc(O)c(O)c2C(=O)c2c(O)ccc(O)c21 [Compound 15, Quinalizarin] | nano-molar range |
